Target: T1, human CD8A-Fc (in house) (human, UniProt P01732 22-182, limits assumed)
T1 construct: captured by goat anti-human Fc on the ProteOn chip; also called hCD8A-Fc; recombinant human CD8 alpha; not shown: linker/tag and Fc of human IgG1
T1 sequence (P01732 22-182 limits assumed): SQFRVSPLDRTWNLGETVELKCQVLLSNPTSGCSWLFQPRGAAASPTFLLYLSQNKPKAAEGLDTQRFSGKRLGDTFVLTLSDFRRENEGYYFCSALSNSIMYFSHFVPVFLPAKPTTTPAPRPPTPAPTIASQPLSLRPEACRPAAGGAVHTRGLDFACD
Test: SPR (ProteOn), captured hCD8A-Fc
MEASURED PROPERTY: koff (s⁻¹)

Some binders with recorded koff:
P283ER9P1365_G3 (designed binder, FN3 domain) LPAPKNLVVSRVTEDSARLSWTAPDAAFDSFGISYYEWAPNGEAIQLSVPGSERSYDLTGLKPGTEYHVVIIGVKGGEPSHPLGAIFTT = 0.0025
P283GR7P1367_B7 (designed binder, FN3 domain) LPAPKNLVVSRVTEDSARLSWTAPDAAFDSFDIAYPEWPTDGEAIVLTVPGSERSYDLTGLKPGTEYFVVIYGVKGGHWSYPLSAIFTT = 0.00127
P283GR7P1367_H8 (designed binder, FN3 domain) LPAPKNLVVSRVTEDSARLSWTAPDAAFDSFSINYWEEDPAGEAIVLTVPGSERSYDLTGLKPGTEYRVLIGGVKGGHGSLPLSAIFTT = 0.00974
P283BR9P1363_G5 (designed binder, FN3 domain) LPAPKNLVVSRVTEDSARLSWYRATTPAPHFDSFLIQYQESEKVGEAIVLTVPGSERSYDLTGLKPGTEYTVSIYGVDVKWEGNRPVASNPLSAIFTT = 0.00014
P283DR9P1364_A7 (designed binder, FN3 domain) LPAPKNLVVSRVTEDSARLSWTAPDAAFDSFRIAYPEWPVRGDAIVLTVPGSERSYDLTGLKPGTEYWVIIQGVKGGTDSFPLSAIFTT = 0.00197

1 = P283FR9P1366_F9 (designed binder, FN3 domain) LPAPKNLVVSRVTEDSARLSWTAPDAAFDSFHIFYPELPIAGEAIVLTVPGSERSYDLTGLKPGTEYWVNISGVKGGYESWPLSAIFTT
2 = P283FR9P1366_H11 (designed binder, FN3 domain) LPAPKNLVVSRVTEDSARLSWTAPDAAFDSFQIQYLETAPDGEAIVLTVPGSERSYDLTGLKPGTEYYVWIPGVKGGAFSPLSAIFTT
QUERY: Of 1 versus 2 , which is the one with smaller reported koff? Which one? Tell me its label.
RESULT: 1
(1: 0.000494 s⁻¹, 2: 0.00139 s⁻¹)
